Measured LD50 of individual entries
# ASSAY_EXPLANATION: acute toxicity, single oral administration
# PROTOCOL_CONDITIONS: mouse, in vivo, po
PROPERTY_NAME: LD50

>>> df
                                smiles_repr  property_name  reported_value
0  CCCCCCCOC(=O)CCc1cc(Cl)ccc1C(=O)CCCNC(C)=O           LD50    > 5000 mg/kg
1       CC(=O)NCCCC(=O)c1ccc(Cl)cc1CCC(N)=O           LD50    > 4000 mg/kg
